Listing of recorded melting point by entry.

Known results for molecules:
>>> print(df.to_string())
                                   molecule         result
0                  COc1ncc(S(C)(=O)=O)cc1Br  148 to 150 °C
1  CC(C)c1cccc(C(C)C)c1NC(=O)NCC1(O)CCCc2ccccc21 (stereo not given)  170 to 171 °C
2                          CCC(=O)NC(C)(C)C    90 to 92 °C
3  Cc1ccc(-c2ccc3c(c2)C=C(C(=O)Nc2ccc(CN4CCN(CCO)CC4)cc2)CC3)cc1  185 to 187 °C
4  N=C(N)NCCOc1ccc2c(c1)CC(CCC(=O)O)C(=O)N2 (stereo not given)  119 to 122 °C

// `CC1(C)CCC(C)(C)c2c(OCc3ccc(F)cc3)cc(C(=O)c3ccc4cc(C(=O)O)ccc4c3)cc21` : melting point value = 277 °C

get_value(item= CC(C)(C)NCC(O)COc1ccccc1C#Cc1ccc(C(N)=O)cc1 (stereo not given) , readout=melting point) returns 199 to 201 °C

====

Here, each record is paired with measured melting point data.

                           molecular_string         result
0  C[C@@H]1CN(c2nccc(Oc3ccc(NC(=O)c4cc(F)cc(N5CCCCC5)c4)c4ccccc34)n2)C[C@H](C)O1  174 to 176 °C
1    O=C(O)c1cnn2c1NCC=C2c1cccc(C(F)(F)F)c1  175 to 177 °C
2  O=C(CCOCCOCCC(=O)Oc1cc(O)cc(O)c1)Oc1cc(O)cc(O)c1  166 to 168 °C
3  Cc1nccn1NCc1cc(C(C)(C)C)c(O)c(C(C)(C)C)c1  181 to 182 °C

// recorded melting point for `CSc1nn(C(=O)NC(C)(C)C)c(=O)n1N` : 134 °C

====

assay.endpoint: melting point

Solved entries (count: 2):
In [3]: df
Out[3]:
                                   molecule         result
0  COc1ccc2c(c1)OCC21C(=O)N(Cc2cccnc2)c2ccccc21 (stereo not given)  164 to 165 °C
1              COc1ccc2[nH]c3c(c2c1)CCSCCC3  122 to 124 °C

melting point measured on `Cc1cc(C)c(N2CCCc3c2nn(C)c3C(=O)N2CCc3ccccc3C2)c(C)c1` = 80.3 to 87.7 °C

====

assay.endpoint: melting point

In [3]: df
Out[3]:
                                   compound         result
0  O=c1[nH]c2c(O)cccc2c(=O)n1CCCN1CC=C(c2ccc(Cl)cc2)CC1  284 to 286 °C
1  N#CC(c1ccc(Cl)cc1)c1ccc(-n2ncc(=O)[nH]c2=O)cc1Cl (stereo not given)         197 °C
2  COc1ccc(C(O)=C(C#N)C(=O)C(C)(C)C)c([N+](=O)[O-])c1    85 to 88 °C
3        CC(C)(C)C(=C=CCl)c1ccccc1-c1ccccc1    85 to 86 °C
4  O=C(N[C@@H](Cc1ccccc1)C(=O)O)c1cccc(NC(=O)C(CS)Cc2ccccc2)c1 (stereo not given in full)    83 to 85 °C

melting point measured on CC1(C)CC(=O)C1(Cl)CC(Br)(Br)Br (stereo not given) = 95 to 97 °C

Summary for this compound, CCCCCCCCCCCCc1ccccc1C(Sc1nc(C)c(C(=O)O)n1C)C(=O)O (stereo not given) : melting point is 104 to 106 °C
